The origin of these recorded values is patent US20260166159A1.

# Tested on: phosphorylated ERK
# assay info: KRAS G12D-mediated phosphorylated ERK inhibition assay (AlphaLISA), A427
# Assay type: cell-based
# setup conditions: Homo sapiens, A-427; A427 cells; class symbols; read-out: pERK (A427) IC50
pIC50: −log10 of the molar value.
# reported pIC50; entries follow

smi	pIC50
C#Cc1c(F)ccc2cc(O)cc(-c3ncc4c(N5CC6CCC(C5)N6)nc(OCC5(CN6CCN(CCCCC7CCN(C(=O)c8ccc(Cl)c(N9CCC(=O)NC9=O)c8)CC7)CC6)CC5)nc4c3F)c12	≥ 7.30
CCc1c(F)ccc2cc(O)cc(-c3ncc4c(N5CC6CCC(C5)N6)nc(OCC5(CN6CCN(CC7CCC8(CC7)CCN(C(=O)c7ccc(OC)c(N9CCC(=O)NC9=O)c7)CC8)CC6)CC5)nc4c3F)c12	≥ 7.30
C#Cc1c(F)ccc2cc(O)cc(-c3ncc4c(N5CC6CCC(C5)N6)nc(OC[C@@H]5CCCN5CCC5CCC6(CC5)CCN(C(=O)c5ccc(Cl)c(N7CCC(=O)NC7=O)c5)CC6)nc4c3F)c12	5.00 to 6.00
C#Cc1c(F)ccc2cc(O)cc(-c3ncc4c(N5CC6CCC(C5)N6)nc(OCC5(CN6CCN(CCC7CCN(C(=O)c8ccc(Cl)c(N9CCC(=O)NC9=O)c8)CC7)CC6)CC5)nc4c3F)c12	7.00 to 7.30
C#Cc1c(F)ccc2cc(O)cc(-c3ncc4c(N5CC6CCC(C5)N6)nc(OCC5(CN6CCC(COCC7CCN(C(=O)c8ccc(Cl)c(N9CCC(=O)NC9=O)c8)CC7)CC6)CC5)nc4c3F)c12	≥ 7.30
C#Cc1c(F)ccc2cc(O)cc(-c3ncc4c(N5CC6CCC(C5)N6)nc(OCC(C)(C)CN5CCN(CCCC6CCN(C(=O)c7ccc(Cl)c(N8CCC(=O)NC8=O)c7)CC6)CC5)nc4c3F)c12	6.30 to 7.00
C#Cc1c(F)ccc2cc(O)cc(-c3ncc4c(N5CC6CCC(C5)N6)nc(OCC5(CN6CCN(CC7CCC8(CC7)CCN(C(=O)c7ccc(OC)c(N9CCC(=O)NC9=O)c7)CC8)CC6)CC5)nc4c3F)c12	≥ 7.30
C#Cc1c(F)ccc2cc(O)cc(-c3ncc4c(N5CC6CCC(C5)N6)nc(OCC5(CN6CCN(CCCC7CCN(C(=O)c8ccc(Cl)c(N9CCC(=O)NC9=O)c8)CC7)CC6)CC5)nc4c3F)c12	≥ 7.30
C#Cc1c(F)ccc2cc(O)cc(-c3ncc4c(N5CC6CCC(C5)N6)nc(OCC5(CN6CCN(CCCCC7CCC8(CC7)CCN(C(=O)c7ccc(Cl)c(N9CCC(=O)NC9=O)c7)CC8)CC6)CC5)nc4c3F)c12	≥ 7.30
CCc1c(F)ccc2cc(O)cc(-c3ncc4c(N5CC6CCC(C5)N6)nc(OCC5(CN6CCN(CC7CCC8(CC7)CCN(C(=O)c7ccc(Cl)c(N9CCC(=O)NC9=O)c7)CC8)CC6)CC5)nc4c3F)c12	≥ 7.30
